These entries and their values trace back to patent US20250340630A1.

TARGET_DESC: T1, human Claudin18.2 (human, UniProt P56856-2 1-261)
T1 construct: whole, on cells; Four-transmembrane protein, always presented on cells (transfected lines or NUGC-4 with endogenous expression); also called CLDN18.2
PROCEDURE_DETAILS: flow cytometry on Ba/F3-Claudin18.2 cells, chimeric antibody
MEASURED_ENDPOINT: Max MFI (MFI)
Please give a number only; it is taken to be in MFI.

Recorded results for 2 binders are shown here.
1. chimeric antibody 1E9.2-hz00 (antibody, human IgG1, kappa, V domains shown, Mouse variable regions on human IgG1 / kappa constant regions; expressed in Expi293F; also called 1E9.2 chimeric antibody) VH: EVMLVESGGGLVKPGGSLKLSCAASGFSFSNSAMSWVRQTPEKRLEGVATISSGDSYTYYPDSVKGRFTISRDNAKNSLYLQMSSLRSEDTAVYYCARQGYGNALDYWGQGTSVTVSS VL: DIVMTQSPSSLTVTAGEKVTMSCKSSQSLLNSGNQKNYLTWYQQKPGQPPKLLIYWSSTRESGVPDRFTGSGSGTDFTLTISSVQAEDLAVYYCQNDYYYPLTFGAGTKLELKR = 1.18e+07
2. chimeric antibody 6B9.22-hz00 (antibody, human IgG1, kappa, V domains shown, Mouse variable regions on human IgG1 / kappa constant regions; expressed in Expi293F) VH: QVQLQQSGAELVKPGASVKMSCKAFGYTFTSYPIEWMKQNHGKSLEWIGNFHPYNDDTKYNEKFKGKAKLTVEKSSSTVYLELSRLTSDDSAVYYCARTYYGNSFAYWGQGTLVTVSS VL: DIVMTQSPSSLTVTAGEKVTMSCKSSQSLLNSGNQKNYLTWYQQKPGQPPKLLIYWASSRDSGVPHRFTGSGSGTDFTLTISSVQAEDLAFYYCQNDYFYPFTFGAGTKLELKR = 1.67e+07

Measured Max MFI of chimeric antibody 9C8.1-hz00 (antibody, human IgG1, kappa, V domains shown, Mouse variable regions on human IgG1 / kappa constant regions; expressed in Expi293F) VH: QVQLQQSGAELVRPGSSVKISCKASGYAFSNYWMNWVKQRPGQGLEWIGQIYPGDGDTNYNGKFKGKATLTTDKSSSTAYMQLSSLTSEDSAVYFCARLYYGNSFAYWGQGTLVTVSS VL: DIVMTQSPSSLTVTAGEKVTVSCKSSQSLLNSGNQKNYLTWYQQKPGQPPKLLIYWASTRESGVPDRFTGSGSGTDFTLTISSVQAADLAIYYCQNDYFYPFTFGGGTKLEIKR : 1.44e+07
